# Experimental protocol: In vitro inhibition of cytopathic effect was determined against HIV-1 IIIB in MT-4 cells using MTT cytoprotection assay
# Condition label: MT4
Measured property: log10 EC50 (log10 of the value in µM)
All values: log10 EC50 [µM].

compound="CC(C)CCCC(C)[C@H]1CC[C@H]2[C@@H]3CCC4C[C@@H](CCC=C(c5cc(Cl)c(OCc6ccc(CC(=O)O)cc6)c(C(=O)O)c5)c5cc(Cl)c(OCc6ccc(CC(=O)O)cc6)c(C(=O)O)c5)CC[C@]4(C)[C@H]3CC[C@]12C (stereo partly specified)" result_number=0.61
compound="CC(C)CCCC(C)[C@H]1CC[C@H]2[C@@H]3CCC4C[C@@H](CCCC(c5cc(Cl)c(O)c(C(=O)NCC(=O)O)c5)c5cc(Cl)c(O)c(C(=O)NCC(=O)O)c5)CC[C@]4(C)[C@H]3CC[C@]12C (stereo partly specified)" result_number=1.60
compound="CC(C)CCCC(C)[C@H]1CC[C@H]2[C@@H]3CCC4C[C@@H](CCC=C(c5cc(Cl)c(OCc6ccc(-c7cccc(C(=O)O)c7)cc6)c(C(=O)O)c5)c5cc(Cl)c(OCc6ccc(-c7cccc(C(=O)O)c7)cc6)c(C(=O)O)c5)CC[C@]4(C)[C@H]3CC[C@]12C (stereo partly specified)" result_number=1.08

Need log10 EC50, item CC(C)CCCC(C)[C@H]1CC[C@H]2[C@@H]3CCC4C[C@@H](CCC=C(c5cc(Cl)c(O)c(C(=O)NCCC(=O)O)c5)c5cc(Cl)c(O)c(C(=O)NCCC(=O)O)c5)CC[C@]4(C)[C@H]3CC[C@]12C (stereo partly specified)
1.87

Give its log10 EC50 value. Item: CC(C)CCCC(C)[C@H]1CC[C@H]2[C@@H]3CCC4C[C@@H](CCC=C(c5cc(Cl)c(OCc6ccc(-c7ccccc7C(=O)O)cc6)c(C(=O)O)c5)c5cc(Cl)c(OCc6ccc(-c7ccccc7C(=O)O)cc6)c(C(=O)O)c5)CC[C@]4(C)[C@H]3CC[C@]12C (stereo partly specified)
1.00

Need log10 EC50, item CC(C)CCCC(C)[C@H]1CC[C@H]2[C@@H]3CCC4C[C@@H](CCC=C(c5cc(Cl)c(O)c(C(=O)O)c5)c5cc(Cl)c(O)c(C(=O)O)c5)CC[C@]4(C)[C@H]3CC[C@]12C (stereo partly specified)
0.48

Value lookup for log10 EC50; key = CC(C)CCCC(C)[C@H]1CC[C@H]2[C@@H]3CCC4C[C@@H](CCC=C(c5cc(Cl)c(O)c(C(=O)N[C@@H](CCC(=O)O)C(=O)O)c5)c5cc(Cl)c(O)c(C(=O)N[C@@H](CCC(=O)O)C(=O)O)c5)CC[C@]4(C)[C@H]3CC[C@]12C (stereo partly specified)
0.95

Sample COc1ccc(C(=O)Nc2cc(C(=CCC[C@H]3CC[C@@]4(C)C(CC[C@H]5[C@@H]6CC[C@H](C(C)CCCC(C)C)[C@@]6(C)CC[C@@H]54)C3)c3cc(NC(=O)c4ccc(OC)c(C(=O)O)c4)c(OC)c(C(=O)O)c3)cc(C(=O)O)c2OC)cc1C(=O)O (stereo partly specified) — what was its log10 EC50?
0.92

====

Measured pEC50 by item
# Experimental protocol: In vitro inhibition of cytopathic effect was determined against HIV-1 IIIB in MT-4 cells using MTT cytoprotection assay
# Condition label: MT4
Here pEC50 is given on a logarithmic scale as minus log10 of the concentration in mol/L.

compound="CC(C)CCCC(C)[C@H]1CC[C@H]2[C@@H]3CCC4C[C@@H](CCC=C(c5cc(Cl)c(O)c(C(=O)N[C@@H](CC(C)C)C(=O)O)c5)c5cc(Cl)c(O)c(C(=O)N[C@@H](CC(C)C)C(=O)O)c5)CC[C@]4(C)[C@H]3CC[C@]12C (stereo partly drawn)" measured_property=pEC50 result_number=4.20

Give its pEC50 value. Item: CC(C)CCCC(C)[C@H]1CC[C@H]2[C@@H]3CCC4C[C@@H](CCCC(c5cc(Cl)c(O)c(C(=O)N[C@@H](CCC(=O)O)C(=O)O)c5)c5cc(Cl)c(O)c(C(=O)N[C@@H](CCC(=O)O)C(=O)O)c5)CC[C@]4(C)[C@H]3CC[C@]12C (stereo partly drawn)
4.99

# input compound: CC(C)CCCC(C)[C@H]1CC[C@H]2[C@@H]3CCC4C[C@@H](CCCC(c5cc(Cl)c(OCc6ccc(C(=O)O)cc6)c(C(=O)O)c5)c5cc(Cl)c(OCc6ccc(C(=O)O)cc6)c(C(=O)O)c5)CC[C@]4(C)[C@H]3CC[C@]12C (stereo partly drawn) ; wanted: its pEC50
5.29

GET /values?readout=pEC50&item= COc1c(Cl)cc(Cc2cc(C(=CCC[C@H]3CC[C@@]4(C)C(CC[C@H]5[C@@H]6CC[C@H](C(C)CCCC(C)C)[C@@]6(C)CC[C@@H]54)C3)c3cc(Cc4cc(Cl)c(OC)c(C(=O)O)c4)c(OC)c(C(=O)O)c3)cc(C(=O)O)c2OC)cc1C(=O)O (stereo partly drawn)
4.90
